Taken from patent US12448388B2.

- Test system: Symmetric Di-methyl Arginine (SDMA) signal (PRMT5 inhibition) in HCT116 MTAP-deleted cells
- METHOD_NOTES: Symmetric di-methyl arginine image-based high content screen assay (SDMA assay), HCT116 MTAP-deleted
- Assay type: cell-based
- CONDITION_CONTEXT: Homo sapiens, HCT-116, HCT116 MTAP-deleted, class symbols
pEC50: −log10 of the molar value.
Quick reference for pEC50 among some molecules

Challenge: Which pEC50 reading was recorded for the molecule CN(C(=O)c1cc2c(cc1F)nc(N)c1cncn12)[C@@H]1COCc2cc(-c3cnn(C(F)(F)F)c3)ccc21 [Ff-279] ?
Response given: ≥ 9.00

Challenge: Now the same for C[C@H](c1ncccn1)N(Cc1ccc(C(F)(F)F)cn1)C(=O)c1ccc2nc(N)c3cncn3c2c1 [Fe-2]
Response given: ≥ 9.00

Challenge: Now the same for Cc1ncc2c(N)nc3cnc(C(=O)N4C[C@H](F)C[C@@H]5Oc6cc(C(F)(F)F)ccc6[C@@H]54)cc3n12 (racemic) [Ff-682]
Response given: 8.30 to 9.00

Challenge: Now the same for Cc1ncc2c(N)nc3ccc(C(=O)N(Cc4ccc(C(F)(F)F)cc4F)N(C)C(=O)C4CC4)cc3n12 [Fb-4]
Response given: 8.30 to 9.00

Challenge: Now the same for C[C@H]1C[C@@H]2Oc3cc(OC(F)(F)F)ccc3[C@@H]2N(C(=O)c2cc3c(cn2)nc(N)c2cncn23)C1 [Fg-54]
Response given: ≥ 9.00

Further cases:
Challenge: Which pEC50 reading was recorded for the molecule CN(C(=O)c1cc2c(cc1F)nc(N)c1cncn12)[C@@H]1COc2cc(N3CCOCC3)ccc21 [Ff-144] ?
Response given: 8.30 to 9.00

Challenge: Now the same for Nc1nc2cnc(C(=O)N3CCC[C@@H]4Cc5cc(C(F)(F)F)ccc5[C@@H]43)cc2n2cncc12 (single isomer, unassigned) [Ff-687]
Response given: ≥ 9.00

Challenge: Now the same for Cc1ncn2c1c(N)nc1cnc(C(=O)N3CCC4(CC4)[C@@H]4Oc5cc(C(F)(F)F)ccc5[C@@H]43)cc12 [Ff-678]
Response given: 8.30 to 9.00

Challenge: Now the same for Cc1ncn2c1c(N)nc1ccc(C(=O)N(C)[C@@H]3COc4nc(C(F)(F)F)ccc43)cc12 [Fg-7]
Response given: 8.30 to 9.00

###

- Test system: HCT116 MTAP-deleted cell lines
- METHOD_NOTES: Cell viability assay (CellTiter-Glo, 7 days), HCT116 MTAP-deleted
- Assay type: cell-based
- CONDITION_CONTEXT: Homo sapiens, HCT-116; cell viability, HCT116 MTAP-deleted; class symbols; read-out: CC50
TEST_READOUT: CC50

Answered examples (4):
Challenge: For HCT116 MTAP-deleted cell lines, provide CC50 of CN(C(=O)c1cc2c(cc1F)nc(N)c1cncn12)C1COc2c1ccc1c2OC(F)(F)O1 (centres unmarked) please.
Response given: 0.1 to 1 µM

Challenge: Now the same for Cc1ncn2c1c(N)nc1cc(Cl)c(C(=O)N3CCC[C@@H]4Oc5nc(C(F)(F)F)ccc5[C@@H]43)cc12
Response given: < 0.1 µM

Challenge: Now the same for CN(C(=O)c1cc2c(cc1F)nc(N)c1cncn12)[C@@H](c1ccc(C(F)(F)F)cc1)C(F)F
Response given: < 0.1 µM

Challenge: Now the same for Cc1ncc2c(N)nc3cc(F)c(C(=O)N4CCC[C@@H]5Oc6nc(C(F)(F)F)ccc6[C@@H]54)cc3n12
Response given: < 0.1 µM

In the following, a different molecule is considered.
Challenge: For HCT116 MTAP-deleted cell lines, provide CC50 of Cc1ncn2c1c(N)nc1cnc(C(=O)N3CCC[C@@H]4Oc5cc(C(F)(F)F)c(F)cc5[C@@H]43)cc12 please.
Response given: < 0.1 µM
